Collected protein stability index values appear next to each entry.
ASSAY: protein stability index of a GFP-peptide fusion (GPS, HEK-293T) (PSI 1-6); higher = more stable;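 further: 24-mer peptide tiles fused after GFP, lentivirally expressed, FACS-sorted into six equal bins by GFP/DsRed ratio, decoded by Illumina sequencing, PSI is the read-weighted mean bin number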
PARTICULARS: treatment: DMSO; c terminus: a fixed tail appended
API doc: respond with a numeric literal and nothing else, no unit.

Worked cases, answers included:
AVGVLLLGLVGYYIFRVANHQKDL [DHCR7] | 2.84
GFRYSERYDPEPKSKWDEEWDKNK [CLINT1] | 3.73
ASTVLKSVGFQSNEAASLASTGVG [SLC2A12] | 4.16

Attention now turns to another entry.
// query protein stability index value for entry QSSLLETLYRNRSNLETIFRIIDS [PPEF2] 2.17

====

ASSAY: protein stability index of a GFP-peptide fusion (GPS, HEK-293T) (PSI 1-6); higher = more stable
PARTICULARS: treatment: DMSO; c terminus: a fixed tail appended
Readings of protein stability index for the listed sequences

Reference set, count: 5
LEQIMESVKSKIGELEDESLNRAC [CEP70] | 4.47
LHPPVDDPQSGELPSERWNPTQNV [CDC34] | 5.02
IEREVNILREIRHPNIITLHDIFE [DAPK3] | 2.69
SELERLIVPNSNGVITTTPTPPGQ [JUNB] | 4.65
SEIKNLERYMCSRFFIDFPHIEEQ [TENT5D] | 2.42

Suppose we examine the sequence QEWSFLPSITRKRRYVASVSLHDR [KLHL12] ; what protein stability index value has been reported? 2.41

Continue with RRLGLSTLGELKQNLSRSWHDVQV [TPD52L2] 2.9

Another sequence to look at: RRHPQGAWKELDRNYLNYGEEGAP [CHGB] 4.05

====

ASSAY: protein stability index of a GFP-peptide fusion (GPS, HEK-293T) (PSI 1-6); higher = more stable
PARTICULARS: treatment: DMSO; c terminus: a fixed tail appended
# key: entry, value: protein stability index
Please reply with the number alone, leaving off any unit.

Example entries and their recorded answers appear below.
EGHSPGNLPKFCHECGTKYPVEWA [ZC2HC1A] | 2.91
NPVYYGPSDFFIGAVIEVFGHRFI [EFHC1] | 3.04

From here, focus on the item given below.
Item under review: VATNSAGTRYSAPANLYVRELREV [PTPRD] . Reported protein stability index? 3.05

====

ASSAY: protein stability index of a GFP-peptide fusion (GPS, HEK-293T) (PSI 1-6); higher = more stable
PARTICULARS: treatment: DMSO; c terminus: a fixed tail appended
Form field: protein stability index (one value per entry).

Example results:
ASLNHLDSHILLCLMGLAETPGCA [DCAF4] | 3.14
QTPQVNINPFTPDSLLLHSSGQCR [WEE1] | 3.6
AEEYDEKTSELLVRKWRVKSALGA [DPCD] | 3.34

Give the measured protein stability index of GLDGYRGYSLADWVCLAYFTSGFN [SPACA3] . 3.1

Could you do the same for GALQIEQSEESDQGKYECVATNSA [PTPRD] , please? 5.18

Next sequence up: KKTGKSSTTALGDKQRKANESKGT [ELOA2] 5.26

====

Each entry below lists one item and its recorded protein stability index value.
ASSAY: protein stability index of a GFP-peptide fusion (GPS, HEK-293T) (PSI 1-6); higher = more stable
PARTICULARS: treatment: MLN4924 1 uM, 8 h; c terminus: a fixed tail appended
Form field (numeric): enter value without unit.

LRTIPSPYPASKADIPSVAFSSRL [DCAF4] | 2.94
WQLFGPFGAVTNVKVIRDFTTNKC [ELAVL3] | 2.2

Consider the sequence LTPTYLNQEDAIHFHRTLKEACDQ [CPOX] and give its measured protein stability index. 4.35

Please answer likewise for SFCLEDTECEGDIQKNYECANFGD [LOXL2] 5.33

Subsequent entry: PHGQYGGHHQGMPGYLPGAMPPYG [ZNF207] 3.09

Similarly, TGLELIAEESNPPLQDFPNSISSD [MIA2] ? 5.33

And what about the sequence NRDEHSSRGYRNHRSSRETRDYAP [RBMY1A1] ? 4.63

Try the sequence PEPEDEPGGPGAMTESLEASEFLE [RSPH3] 5.48
